- measurement description: Pharmacokinetics test using mice
- Assay type: in vivo
- test conditions: male, Balb/C, mouse, plasma, PO (10 mg/kg)
quantity: AUC(0-inf)
The reply should read as a number followed by its unit.

Item under review: Nc1ncc(-c2cc(-c3cnn(CC(F)(F)F)c3)ccc2F)nc1C(=O)N[C@@H]1CNC[C@@H](F)C1 [Example 9] . Reported AUC(0-inf)?
1770 ng·h/mL

---

- measurement description: Pharmacokinetics test using mice
- Format: in vivo
- test conditions: male, Balb/C, mouse, plasma, PO (10 mg/kg), read-out: C0/Cmax
quantity: Cmax (µg/mL)
Numeric answer only, unit µg/mL assumed.

Name the reported Cmax value associated with the molecule Nc1ncc(-c2cc(-c3cnn(CC(F)(F)F)c3)ccc2F)nc1C(=O)N[C@@H]1CNC[C@@H](F)C1
0.749
